# target-system: Hypoxia-inducible factor 1-alpha (Homo sapiens) (UniProt Q16665)
# Sequence (Q16665 whole entry, looked up): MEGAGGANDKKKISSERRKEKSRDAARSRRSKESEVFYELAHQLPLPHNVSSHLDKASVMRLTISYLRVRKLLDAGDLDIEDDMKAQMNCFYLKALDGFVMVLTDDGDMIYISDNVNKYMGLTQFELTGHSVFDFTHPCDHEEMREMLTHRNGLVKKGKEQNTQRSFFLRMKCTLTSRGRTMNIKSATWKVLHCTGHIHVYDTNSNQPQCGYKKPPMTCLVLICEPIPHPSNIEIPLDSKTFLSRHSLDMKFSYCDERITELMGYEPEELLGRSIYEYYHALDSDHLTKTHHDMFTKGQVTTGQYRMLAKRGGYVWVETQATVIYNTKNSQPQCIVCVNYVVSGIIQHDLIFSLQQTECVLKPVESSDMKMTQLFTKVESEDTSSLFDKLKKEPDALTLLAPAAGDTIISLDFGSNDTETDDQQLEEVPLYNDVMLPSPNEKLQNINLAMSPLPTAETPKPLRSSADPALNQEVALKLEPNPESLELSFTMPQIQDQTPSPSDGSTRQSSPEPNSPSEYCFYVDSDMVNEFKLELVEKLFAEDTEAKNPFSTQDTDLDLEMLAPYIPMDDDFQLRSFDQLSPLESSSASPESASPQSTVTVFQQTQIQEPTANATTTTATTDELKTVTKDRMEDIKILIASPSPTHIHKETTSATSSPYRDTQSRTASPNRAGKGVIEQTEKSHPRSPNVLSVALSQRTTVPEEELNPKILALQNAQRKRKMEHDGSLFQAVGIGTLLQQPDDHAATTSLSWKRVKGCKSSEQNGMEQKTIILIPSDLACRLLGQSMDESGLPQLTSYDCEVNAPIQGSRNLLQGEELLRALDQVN
# experiment-notes: ATG_HIF1a_CIS: Attagene CIS-FACTORIAL HepG2 Assay for human Hypoxia Inducible Factor 1 (HIF1A) (AID 2282951)
# assay-setup: HepG2 Attagene cis-factorial HIF1a reporter transcription; actives raise or lower the signal
# Procedure: ATG_CIS is a cell-based, multiplexed-readout assay that uses HepG2, a human liver cell line, with measurements taken at 24 hours after chemical dosing in a 24-well plate.ATG_HIF1a_CIS is one of 52 assay component(s) measured or calculated from the ATG_CIS assay. […] This assay endpoint, ATG_HIF1a_CIS, was analyzed with bidirectional fitting relative to DMSO as the negative control and baseline of activity. […]
The source made the active and inactive calls. How the source made its calls: active means hit-call score of the fitted dose curve at least 0.9, where 1 is the maximum; inactive means score below 0.9.
Outcome codes: active, inactive

molecule=CC(C)CCOCCC(C)C target_system="Hypoxia-inducible factor 1-alpha (Homo sapiens) (UniProt Q16665)" class=inactive
molecule=CCOC(C)=O target_system="Hypoxia-inducible factor 1-alpha (Homo sapiens) (UniProt Q16665)" class=inactive
molecule=Cc1ccc(S(=O)(=O)O)cc1 target_system="Hypoxia-inducible factor 1-alpha (Homo sapiens) (UniProt Q16665)" class=inactive
molecule=COc1cc(OC)nc(NC(=O)NS(=O)(=O)Nc2ccccc2C(=O)N(C)C)n1 target_system="Hypoxia-inducible factor 1-alpha (Homo sapiens) (UniProt Q16665)" class=inactive
molecule=COCN(COC)c1nc(N(COC)COC)nc(N(COC)COC)n1 target_system="Hypoxia-inducible factor 1-alpha (Homo sapiens) (UniProt Q16665)" class=inactive
molecule=CCOC(=O)CN[C@@H](C(=O)N1CC[C@H]1C(=O)NCc1ccc(/C(N)=N/O)cc1)C1CCCCC1 target_system="Hypoxia-inducible factor 1-alpha (Homo sapiens) (UniProt Q16665)" class=inactive
molecule=c1cc2cccc3c4cccc5cccc(c(c1)c23)c54 target_system="Hypoxia-inducible factor 1-alpha (Homo sapiens) (UniProt Q16665)" class=inactive
molecule=O=C(O)CCC(F)(F)C(F)(F)C(F)(F)C(F)(F)C(F)(F)F target_system="Hypoxia-inducible factor 1-alpha (Homo sapiens) (UniProt Q16665)" class=inactive
molecule=O=C(c1cc(O)c(O)c(O)c1)c1ccc(O)c(O)c1O target_system="Hypoxia-inducible factor 1-alpha (Homo sapiens) (UniProt Q16665)" class=active
molecule=CCN(CC)CC target_system="Hypoxia-inducible factor 1-alpha (Homo sapiens) (UniProt Q16665)" class=inactive
molecule="CC1CCC(CO)CC1 (configuration not stated)" target_system="Hypoxia-inducible factor 1-alpha (Homo sapiens) (UniProt Q16665)" class=inactive
molecule=O=S(=O)(O)C(F)(F)C(F)(F)C(F)(F)C(F)(F)C(F)(F)C(F)(F)C(F)(F)C(F)(F)C(F)(F)C(F)(F)F target_system="Hypoxia-inducible factor 1-alpha (Homo sapiens) (UniProt Q16665)" class=inactive
